These data points were gathered from paper PMC5515971.

- Test system: 3D human liver microtissues (hLiMT)
- test.protocol: Cytotoxicity (cellular ATP, CellTiter-Glo 2.0) in 3D human liver microtissues, 14 day repeat-dose treatment
- measurement.context: Homo sapiens, Hepatocyte, 336 h, read-out: Geomean IC50 [µM]
experimental.readout: IC50

Recorded results for 4 molecules are shown here.
C#CCN(C)Cc1ccccc1 [Pargyline]; > 100 µM
CCN(CC)C(=O)/C(C#N)=C/c1cc(O)c(O)c([N+](=O)[O-])c1 [Entacapone]; 152 µM
C#C[C@]1(O)CC[C@H]2[C@@H]3CCC4=Cc5oncc5C[C@]4(C)[C@H]3CC[C@@]21C [Danazol]; > 100 µM
Nc1cc(N2CCCCC2)nc(N)[n+]1[O-] [Minoxidil]; > 100 µM

For each of the molecules below, state IC50.
1. CC(C(=O)O)c1ccc2oc(-c3ccc(Cl)cc3)nc2c1 (stereo not shown) [Benoxaprofen]
2. CC(COc1ccccc1)N(CCCl)Cc1ccccc1 (stereo not shown) [Phenoxybenzamine]
3. CN(C)C(=N)N=C(N)N [Metformin]
4. CN(C)C(=O)Oc1ccc[n+](C)c1 [Pyridostigmine]

Result:
1. > 100 µM
2. > 25 µM
3. > 100 µM
4. > 100 µM

For each of the molecules below, state IC50.
1. O=c1[nH]c2ccccc2n1C1CCN(CCCC(c2ccc(F)cc2)c2ccc(F)cc2)CC1 [Pimozide]
2. O=C1CN(/N=C/c2ccc(-c3ccc([N+](=O)[O-])cc3)o2)C(O)=N1 [Dantrolene]

Result:
1. > 6 µM
2. > 100 µM
